tested target: Histone acetyltransferase p300 (Homo sapiens)
Sequence (Q09472 whole entry): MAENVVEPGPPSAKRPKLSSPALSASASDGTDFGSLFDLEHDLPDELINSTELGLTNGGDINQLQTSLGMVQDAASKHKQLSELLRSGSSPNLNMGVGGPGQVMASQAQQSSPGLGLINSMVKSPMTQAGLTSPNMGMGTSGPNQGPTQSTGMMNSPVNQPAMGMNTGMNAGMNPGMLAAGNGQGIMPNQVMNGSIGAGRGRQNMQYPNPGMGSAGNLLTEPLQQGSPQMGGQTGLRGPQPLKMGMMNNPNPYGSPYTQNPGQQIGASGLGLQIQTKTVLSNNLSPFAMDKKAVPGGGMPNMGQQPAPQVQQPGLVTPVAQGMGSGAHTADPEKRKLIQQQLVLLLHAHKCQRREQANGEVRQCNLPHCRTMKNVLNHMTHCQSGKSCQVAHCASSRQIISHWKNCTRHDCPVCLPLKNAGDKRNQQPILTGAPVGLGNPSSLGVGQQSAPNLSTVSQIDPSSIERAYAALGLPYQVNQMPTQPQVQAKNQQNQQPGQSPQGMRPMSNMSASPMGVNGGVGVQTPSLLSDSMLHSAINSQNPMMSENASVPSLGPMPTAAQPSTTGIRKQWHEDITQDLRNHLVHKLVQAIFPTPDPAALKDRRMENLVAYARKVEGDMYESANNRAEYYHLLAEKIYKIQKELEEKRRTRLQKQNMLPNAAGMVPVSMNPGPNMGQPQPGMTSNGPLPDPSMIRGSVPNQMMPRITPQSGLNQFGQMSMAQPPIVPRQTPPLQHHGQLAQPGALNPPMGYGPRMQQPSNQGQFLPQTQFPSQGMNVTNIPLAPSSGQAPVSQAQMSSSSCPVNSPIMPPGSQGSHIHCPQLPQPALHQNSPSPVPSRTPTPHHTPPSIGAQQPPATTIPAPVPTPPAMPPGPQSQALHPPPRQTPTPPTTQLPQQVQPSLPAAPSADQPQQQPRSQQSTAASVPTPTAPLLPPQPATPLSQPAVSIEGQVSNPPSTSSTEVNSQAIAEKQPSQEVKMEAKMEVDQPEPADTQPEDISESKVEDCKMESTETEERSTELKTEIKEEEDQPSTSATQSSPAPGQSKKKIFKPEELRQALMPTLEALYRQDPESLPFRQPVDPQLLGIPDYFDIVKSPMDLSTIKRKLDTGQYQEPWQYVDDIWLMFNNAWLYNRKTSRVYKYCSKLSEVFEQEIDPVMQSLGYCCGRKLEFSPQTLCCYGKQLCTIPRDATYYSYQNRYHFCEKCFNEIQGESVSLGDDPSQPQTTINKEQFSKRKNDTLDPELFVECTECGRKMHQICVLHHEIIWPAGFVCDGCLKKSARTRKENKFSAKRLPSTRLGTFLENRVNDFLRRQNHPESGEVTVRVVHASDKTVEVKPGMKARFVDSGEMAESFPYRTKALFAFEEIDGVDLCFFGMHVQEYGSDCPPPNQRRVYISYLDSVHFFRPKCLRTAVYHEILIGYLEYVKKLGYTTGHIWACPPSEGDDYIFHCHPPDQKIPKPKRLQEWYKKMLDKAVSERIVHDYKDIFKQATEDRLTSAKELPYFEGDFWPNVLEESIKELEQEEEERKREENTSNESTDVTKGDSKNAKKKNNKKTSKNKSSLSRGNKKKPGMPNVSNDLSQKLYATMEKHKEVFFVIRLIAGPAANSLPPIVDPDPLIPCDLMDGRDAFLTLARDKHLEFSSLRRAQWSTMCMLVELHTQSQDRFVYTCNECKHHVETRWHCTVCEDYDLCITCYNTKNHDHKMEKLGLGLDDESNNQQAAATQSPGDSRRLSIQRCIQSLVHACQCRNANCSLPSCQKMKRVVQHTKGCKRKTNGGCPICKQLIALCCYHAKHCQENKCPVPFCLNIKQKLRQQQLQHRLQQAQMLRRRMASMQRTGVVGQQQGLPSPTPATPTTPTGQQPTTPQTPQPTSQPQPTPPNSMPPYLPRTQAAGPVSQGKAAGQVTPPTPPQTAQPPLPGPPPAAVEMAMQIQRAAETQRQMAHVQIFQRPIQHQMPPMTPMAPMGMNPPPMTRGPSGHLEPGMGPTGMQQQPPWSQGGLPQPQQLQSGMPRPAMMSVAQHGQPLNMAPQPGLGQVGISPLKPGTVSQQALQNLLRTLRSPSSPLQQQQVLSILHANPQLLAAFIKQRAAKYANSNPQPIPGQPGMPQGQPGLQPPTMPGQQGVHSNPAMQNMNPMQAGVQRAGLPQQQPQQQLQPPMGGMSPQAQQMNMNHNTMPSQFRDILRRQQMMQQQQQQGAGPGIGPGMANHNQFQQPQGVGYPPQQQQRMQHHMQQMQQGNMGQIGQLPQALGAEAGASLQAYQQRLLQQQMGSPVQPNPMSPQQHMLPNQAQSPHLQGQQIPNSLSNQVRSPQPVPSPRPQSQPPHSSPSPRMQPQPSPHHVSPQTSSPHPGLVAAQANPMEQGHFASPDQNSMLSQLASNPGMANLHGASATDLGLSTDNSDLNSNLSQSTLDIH
value kind: IC50

Below are worked cases with known answers.
1) Cc1cc(-c2cc(S(=O)(=O)NC(C)(C)C)ccc2Oc2ccc(F)cc2F)n2cc[nH]c(=O)c12 | > 100 µM
2) CC(=O)Nc1ccc(Oc2ccc(F)cc2F)c(-c2cc(C)c3c(=O)[nH]ccn23)c1 | > 100 µM
3) Cc1cc(-c2cc(CS(C)(=O)=O)ccc2Oc2ccc(F)cc2F)n2cc[nH]c(=O)c12 | 16.5 µM
4) Cc1sc2c(c1C)C(c1ccc(Cl)cc1)=N[C@@H](CC(=O)Nc1ccc(O)cc1)c1nnc(C)n1-2 | > 33 µM
5) Cc1cc(-c2cc(NS(C)(=O)=O)ccc2Sc2ccccc2)n2cc[nH]c(=O)c12 | > 100 µM

Can you give me IC50 for all of these, one by one?
1. Cc1cc(-c2cc(NS(C)(=O)=O)ccc2Oc2ccccc2)n2cc[nH]c(=O)c12
2. Cc1cc(-c2cc(S(C)(=O)=O)cnc2Oc2ccc(F)cc2F)n2cc[nH]c(=O)c12
3. Cc1cc(-c2cc(NS(C)(=O)=O)ccc2OC2CCCCC2)n2cc[nH]c(=O)c12

Solution:
1. 25.1 µM
2. > 33 µM
3. 5.4 µM

----------
tested target: Bromodomain testis-specific protein (Homo sapiens, UniProt Q58F21)
experiment: Binding affinity to human partial length BRDT bromodomain 2 isoform b (K250 to E382 residues) expressed in bacterial expression system by bromoscan assay
value kind: Kd (nM)
Give bare numbers, in nM.

Problem: Request the reported Kd associated with `CCS(=O)(=O)Cc1cnc(Oc2ccc(F)cc2F)c(-c2cc(C)c3c(=O)[nH]ccn23)c1`
Solution: 2.1

----------
tested target: Bromodomain-containing protein 4 (Homo sapiens)
experiment: Inhibition of SGRG-K(Ac)-GG-K(Ac)-GLG-K(Ac)-GGA-K(Ac)-RHRKVGG-K-Biotin binding to N-terminal His6-tagged BRD4 bromodomain 2 (344 to 455 residues) (unknown origin) expressed in Escherichia coli BL21 (DE3) preincubated for 15 mins followed by biotin-labeled H4 peptide addition and measured after 10 mins by Alphascreen assay
value kind: IC50 (nM)
Numbers only, in nM.

1. Cc1cc(-c2cc(S(C)(=O)=O)ccc2Oc2ccc(F)cc2F)n2cc[nH]c(=O)c12 | 117
2. Cc1cc(-c2cc(S(=O)(=O)NC(C)(C)C)cnc2Oc2ccc(F)cc2F)n2cc[nH]c(=O)c12 | 478
3. Cc1cc(-c2cc(S(C)(=O)=O)cnc2Oc2ccc(F)cc2F)n2cc[nH]c(=O)c12 | 229

Now consider a different compound.
Problem: // lookup IC50 for `CC(=O)Nc1ccc(Oc2ccc(F)cc2F)c(-c2cc(C)c3c(=O)[nH]ccn23)c1`
Solution: 97.9

----------
experiment: Half life in mouse liver microsomes at 0.1 uM preincubated for 10 mins followed by NADPH addition and measured up to 60 mins by LC-MS/MS analysis
Type: ADME, Microsome
value kind: half-life at 0.1 µM (min)
One number for each entry, in min.

1) CCS(=O)(=O)Nc1ccc(Oc2ccc(F)cc2F)c(-c2cc(C)c3c(=O)[nH]ccn23)c1 | 9.1

# return half-life at 0.1 µM for each item in the list
1. Cc1cc(-c2cc(CS(C)(=O)=O)ccc2Oc2ccc(F)cc2F)n2cc[nH]c(=O)c12
2. Cc1cc(-c2cc(NS(C)(=O)=O)ccc2OC2CCCCC2)n2cc[nH]c(=O)c12
3. CCS(=O)(=O)Cc1cnc(Oc2ccc(F)cc2F)c(-c2cc(C)c3c(=O)[nH]ccn23)c1
4. CCS(=O)(=O)Cc1ccc(Oc2ccc(F)cc2F)c(-c2cc(C)c3c(=O)[nH]ccn23)c1

Solution:
[5.5, 6.3, 83, 12]

# map each molecule to its half-life at 0.1 µM
1. Cc1cc(-c2cc(NS(C)(=O)=O)ccc2Oc2ccccc2)n2cc[nH]c(=O)c12
2. Cc1cc(-c2cc(CS(C)(=O)=O)cnc2Oc2ccc(F)cc2F)n2cc[nH]c(=O)c12

Solution:
1. 18.1
2. 58.5

Problem: Consider the molecule `Cc1cc(-c2cc(NS(C)(=O)=O)ccc2Oc2ccc(F)cc2F)n2cc[nH]c(=O)c12` and give its measured half-life at 0.1 µM.
Solution: 14.9

----------
tested target: Bromodomain-containing protein 4 (Homo sapiens, UniProt O60885)
experiment: Inhibition of SGRG-K(Ac)-GG-K(Ac)-GLG-K(Ac)-GGA-K(Ac)-RHRKVGG-K-Biotin binding to N-terminal His6-tagged BRD4 bromodomain 1 (49 to 170 residues) (unknown origin) expressed in Escherichia coli BL21 (DE3) preincubated for 15 mins followed by biotin-labeled H4 peptide addition and measured after 10 mins by Alphascreen assay
For each record, write down the corresponding IC50.
Answers are plain numbers, in nM.

1. Cc1cc(-c2cc(S(C)(=O)=O)cnc2Oc2ccc(F)cc2F)n2cc[nH]c(=O)c12 | 288
2. Cc1cc(-c2cc(S(=O)(=O)NC(C)(C)C)ccc2Oc2ccc(F)cc2F)n2cc[nH]c(=O)c12 | 438
3. Cc1cc(-c2cc(S(C)(=O)=O)ccc2Oc2ccc(F)cc2F)n2cc[nH]c(=O)c12 | 134

Problem: Which IC50 is reported with Bromodomain-containing protein 4 (Homo sapiens, UniProt O60885) for this entry: `Cc1cc(-c2cc(NS(C)(=O)=O)ccc2Oc2ccccc2)n2c1C(=O)NCC2` ?
Solution: 76

----------
tested target: Bromodomain-containing protein 2 (Homo sapiens, UniProt P25440)
Sequence (P25440 whole entry, the tested form may be a part, canonical isoform): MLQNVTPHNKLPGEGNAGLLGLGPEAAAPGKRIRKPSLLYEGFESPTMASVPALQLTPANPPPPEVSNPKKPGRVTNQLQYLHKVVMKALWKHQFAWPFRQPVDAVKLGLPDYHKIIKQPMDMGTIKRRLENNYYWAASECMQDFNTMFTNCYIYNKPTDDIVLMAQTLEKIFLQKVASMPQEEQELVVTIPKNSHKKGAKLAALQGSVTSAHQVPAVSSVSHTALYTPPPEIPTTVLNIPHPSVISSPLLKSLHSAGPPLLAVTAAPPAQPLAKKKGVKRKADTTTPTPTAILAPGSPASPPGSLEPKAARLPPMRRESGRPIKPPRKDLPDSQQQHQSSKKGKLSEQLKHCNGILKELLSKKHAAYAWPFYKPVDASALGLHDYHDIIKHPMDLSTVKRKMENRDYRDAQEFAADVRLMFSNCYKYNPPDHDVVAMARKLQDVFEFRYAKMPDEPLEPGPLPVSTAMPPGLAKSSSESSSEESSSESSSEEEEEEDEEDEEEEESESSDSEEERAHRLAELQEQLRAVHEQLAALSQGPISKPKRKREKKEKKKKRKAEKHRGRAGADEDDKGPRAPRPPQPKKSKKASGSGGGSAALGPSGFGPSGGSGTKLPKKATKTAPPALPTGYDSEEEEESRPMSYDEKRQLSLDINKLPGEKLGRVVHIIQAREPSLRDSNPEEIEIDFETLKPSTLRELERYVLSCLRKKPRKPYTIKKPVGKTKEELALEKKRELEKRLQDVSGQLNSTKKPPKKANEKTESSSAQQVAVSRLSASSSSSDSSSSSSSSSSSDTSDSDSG
experiment: Binding affinity to human partial length BRD2 BD2 isoform 1 (E348 to D455 residues) expressed in bacterial expression system by bromoscan assay
value kind: pKd
One number for each entry, as −log10 of the molar value.

Problem: Requested read-out: pKd. Entry: `CCS(=O)(=O)Cc1cnc(Oc2ccc(F)cc2F)c(-c2cc(C)c3c(=O)[nH]ccn23)c1`
Solution: 8.89

----------
experiment: Volume of distribution at steady state in Sprague-Dawley rat at 1 mg/kg, iv by LC-MS/MS analysis
Assay type: ADME, organism-based
stated conditions: in vivo, read-out: Vdss
Exercise: for every item that follows, state its recorded Vd.
Answers are plain numbers, in L/kg.

1. CCS(=O)(=O)Cc1cnc(Oc2ccc(F)cc2F)c(-c2cc(C)c3c(=O)[nH]ccn23)c1 | 1.46

Note: attention shifts to another entry.
Problem: Could you share which Vd value was measured for `Cc1cc(-c2cc(CS(C)(=O)=O)cnc2Oc2ccc(F)cc2F)n2cc[nH]c(=O)c12` ?
Solution: 1.9

----------
tested target: Bromodomain-containing protein 4 (Homo sapiens, UniProt O60885)
experiment: Inhibition of SGRG-K(Ac)-GG-K(Ac)-GLG-K(Ac)-GGA-K(Ac)-RHRKVGG-K-Biotin binding to N-terminal His6-tagged BRD4 bromodomain 2 (344 to 455 residues) (unknown origin) expressed in Escherichia coli BL21 (DE3) preincubated for 15 mins followed by biotin-labeled H4 peptide addition and measured after 10 mins by Alphascreen assay
I'd be grateful if you could share measured IC50 for these entries.
One number for each entry, in µM.

Examples with their reported IC50 follow.
1) Cc1cc(-c2cc(S(=O)(=O)NC(C)(C)C)ccc2Oc2ccc(F)cc2F)n2cc[nH]c(=O)c12 | 0.42
2) CCS(=O)(=O)Cc1ccc(Oc2ccc(F)cc2F)c(-c2cc(C)c3c(=O)[nH]ccn23)c1 | 0.0074
3) Cc1cc(-c2cc(S(=O)(=O)N(C)C)ccc2Oc2ccc(F)cc2F)n2cc[nH]c(=O)c12 | 0.0713
4) Cc1cc(-c2cc(NS(C)(=O)=O)ccc2Oc2ccccc2)n2c1C(=O)NCC2 | 0.13

Okay, now this compound:
Problem: Would you kindly share the measured IC50 for `Cc1cc(-c2ccccc2Oc2ccccc2)n2cc[nH]c(=O)c12` ?
Solution: 1.6

----------
tested target: Cytochrome P450 2C9 (Homo sapiens)
Sequence (P11712 whole entry): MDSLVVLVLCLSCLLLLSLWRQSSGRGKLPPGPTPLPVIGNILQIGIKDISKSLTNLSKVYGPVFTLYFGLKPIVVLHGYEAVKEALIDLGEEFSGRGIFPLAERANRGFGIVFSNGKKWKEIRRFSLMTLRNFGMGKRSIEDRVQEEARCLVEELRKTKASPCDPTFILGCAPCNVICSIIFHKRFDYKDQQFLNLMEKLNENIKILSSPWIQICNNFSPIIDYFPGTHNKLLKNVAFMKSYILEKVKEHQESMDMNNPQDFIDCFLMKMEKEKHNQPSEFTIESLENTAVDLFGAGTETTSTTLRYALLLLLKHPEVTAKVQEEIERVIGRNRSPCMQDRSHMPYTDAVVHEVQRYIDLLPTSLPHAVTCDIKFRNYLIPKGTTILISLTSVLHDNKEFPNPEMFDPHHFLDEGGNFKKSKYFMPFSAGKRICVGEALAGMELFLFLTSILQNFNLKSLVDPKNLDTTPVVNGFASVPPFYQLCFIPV
value kind: IC50

Problem: Form field: reported IC50 of `CCS(=O)(=O)Cc1cnc(Oc2ccc(F)cc2F)c(-c2cc(C)c3c(=O)[nH]ccn23)c1`
Solution: > 20 µM

----------
experiment: Half life in human liver microsomes at 0.1 uM preincubated for 10 mins followed by NADPH addition and measured up to 60 mins by LC-MS/MS analysis
Format: ADME, Microsome
Give 1.0 when the value for half-life at 0.1 µM is at least 50 min. Give 0.0 when it is less.

Worked set:
1. Cc1cc(-c2cc(CS(C)(=O)=O)cnc2Oc2ccc(F)cc2F)n2cc[nH]c(=O)c12 | 1.0
2. CCS(=O)(=O)Cc1ccc(Oc2ccc(F)cc2F)c(-c2cc(C)c3c(=O)[nH]ccn23)c1 | 0.0
3. Cc1cc(-c2cc(NS(C)(=O)=O)ccc2Oc2ccc(F)cc2F)n2cc[nH]c(=O)c12 | 1.0

Problem: Kindly determine if half-life at 0.1 µM recorded for `Cc1cc(-c2cc(NS(C)(=O)=O)ccc2Oc2ccccc2)n2cc[nH]c(=O)c12` is above or exactly 50 min.
Solution: 0.0

Problem: Evaluate `Cc1cc(-c2cc(CS(C)(=O)=O)ccc2Oc2ccc(F)cc2F)n2cc[nH]c(=O)c12` : half-life at 0.1 µM at minimum 50 min?
Solution: 0.0

Problem: Exam item: decide whether the reported half-life at 0.1 µM for `CCS(=O)(=O)Cc1cnc(Oc2ccc(F)cc2F)c(-c2cc(C)c3c(=O)[nH]ccn23)c1` is at least 50 min.
Solution: 1.0

Problem: Determine whether measured half-life at 0.1 µM meets or exceeds 50 min for `Cc1cc(-c2cc(NS(C)(=O)=O)ccc2OC2CCCCC2)n2cc[nH]c(=O)c12`
Solution: 0.0

Problem: Is reported half-life at 0.1 µM greater than or equal to 50 min here: `CCS(=O)(=O)Nc1ccc(Oc2ccc(F)cc2F)c(-c2cc(C)c3c(=O)[nH]ccn23)c1`
Solution: 0.0

All figures here come from ChEMBL document CHEMBL4402585.
